tested on: CW-2; test: Cell panel screen (CellTiter-Glo); type: cell-based, human; details: CW-2 (Colon), 20 micromolar, 72 hrs
# Percent Inhibition per entry
MEASURED_ENDPOINT: Percent Inhibition (%)

MOLECULE | MEASURED_ENDPOINT | MEASURED
COc1cc(O)c2c(=O)c3cc(CC=C(C)C)c(O)c(O)c3oc2c1CC=C(C)C | Percent Inhibition | 96
COc1c(CC=C(C)C)c(O)c2c(=O)c3ccc(O)c(O)c3oc2c1CC=C(C)C | Percent Inhibition | 99
COC(=O)C1OC(Oc2cc(O)c3c(=O)cc(-c4ccc(O)cc4)oc3c2)C(O)C(O)C1O (stereo not shown) | Percent Inhibition | 12
O=C1c2c(O)cc(O)cc2OC(c2ccc(O)c(O)c2)C1O (stereo not shown) | Percent Inhibition | 7
CCOC1C2C(=O)c3c(O)c4c(c(CC=C(C)C)c3O[C@@]23[C@H]2C[C@@H]1C(=O)[C@]3(C/C=C(/C)C(=O)O)OC2(C)C)OC(C)(CCC=C(C)C)C=C4 (stereo partly shown) | Percent Inhibition | 99
COc1ccc2c(=O)c3c(O)cc(O)cc3oc2c1OC | Percent Inhibition | 5
O=c1c2cc(O)c(O)cc2oc2cc(O)cc(O)c12 | Percent Inhibition | 25

* * *

Recorded IC50 for the following compounds
tested on: NCI-H1975; experiment: Cell proliferation assay (CellTiter-Glo); type: cell-based; settings: Homo sapiens, NCI-H1975 cells, 72 h

COMPOUND | IC50 [nM]
CC(C)=CCC/C(C)=C/Cc1c(O)c(CC=C(C)C)c2c(c1O)C(=O)C1=C[C@@H]3C[C@H]4C(C)(C)O[C@@](C/C=C(\C)C=O)(C3=O)[C@@]14O2 [GB49] | 1690
CC(C)=CCC/C(C)=C/Cc1c(O)c(CC=C(C)C)c2c(c1O)C(=O)C1=C[C@@H]3C[C@H]4C(C)(C)O[C@@](CC=C(C)C)(C3=O)[C@@]14O2 [GB32] | 1580
CC(C)=CCC/C(C)=C/Cc1c(O)c(CC=C(C)C)c2c(c1O)C(=O)C1=C[C@@H]3C[C@H]4C(C)(C)O[C@@](C/C=C(\C)C(=O)O)(C3=O)[C@@]14O2 [GB63] | 1710
CC(C)=CCC[C@@]1(C)C=Cc2c(O)c3c(c(C/C=C(\C)CO)c2O1)O[C@]12C(=C[C@@H]4C[C@H]1C(C)(C)O[C@@]2(C/C=C(/C)C(=O)O)C4=O)C3=O [GB40, 35-hydroxyepigambogic acid] | 960
CC(C)=CCC[C@@]1(C)C=Cc2c(O)c3c(c(CCC(C)(C)O)c2O1)O[C@]12C(=C[C@@H]4C[C@H]1C(C)(C)O[C@@]2(C/C=C(/C)C(=O)O)C4=O)C3=O [GB39, 33-hydroxyepigambogic acid] | 1250

* * *

test system: C8166; experiment: Cell panel screen (CellTiter-Glo); assay type: cell-based, human; conditions: C8166 (Leukemia), 20 micromolar, 72 hrs

COMPOUND | TEST_SYSTEM | Percent Inhibition, %
O=C1c2c(O)cc(O)cc2OC(c2ccc(O)cc2)C1c1c(O)cc(O)c2c(=O)cc(-c3ccc(O)c(O)c3)oc12 (centres unmarked) | C8166 | -3
COc1cc(O)c2c(=O)c3c(CC=C(C)C)cc(O)c(O)c3oc2c1CC=C(C)CCC=C(C)C | C8166 | 95
O=C1c2c(O)cc(O)cc2OC(c2ccc(O)c(O)c2)C1O (centres unmarked) | C8166 | 7
CCOC(=O)C1OC(Oc2cc(O)c3c(c2)OC(c2ccc(O)c(O)c2)CC3=O)C(O)C(O)C1O (centres unmarked) | C8166 | -1
O=c1c2cc(O)ccc2oc2cccc(O)c12 [Gof3] | C8166 | 29
O=C1CC(c2ccc(O)c(O)c2)Oc2cc(OC3OC(C(=O)O)C(O)C(O)C3O)cc(O)c21 (centres unmarked) | C8166 | -12
O=c1c2ccc(O)c(O)c2oc2cccc(O)c12 | C8166 | -1
COc1c(CC=C(C)C)c(O)c2c(=O)c3ccc(O)c(O)c3oc2c1CC=C(C)C | C8166 | 96
